The measured values listed here are drawn from ChEMBL document CHEMBL4837241.

# MEASUREMENT NOTES: Apparent permeability in human Caco-2 cells across basolateral side to apical side at 10 uM incubated for 95 mins by liquid chromatography-tandem mass spectrometry
# Type: ADME, cell-based
ASSAY ENDPOINT: Papp B→A at 1.583 h, 10 µM (×10⁻⁶ cm/s)
Please respond with the number in ×10⁻⁶ cm/s and leave the unit unwritten.

Give the measured Papp B→A at 1.583 h, 10 µM of C[C@H](O)[C@@H]1CC[C@]2(C(=O)[O-])CC[C@]3(C)[C@H](CC[C@@H]4[C@@]5(C)CC[C@@H](OC(=O)NC6CC6)C(C)(C)[C@@H]5CC[C@]43C)[C@@H]12.[Na+] .
2.49

---

# TARGET SYSTEM: G-protein coupled bile acid receptor 1 (Homo sapiens)
# MEASUREMENT NOTES: Agonist activity at N-terminal HA-tagged human TGR5 expressed in HEK293 cells assessed as […] in intracellular cAMP levels incubated for 30 mins by Lance Ultra cAMP assay
ASSAY ENDPOINT: pEC50
pEC50 is a log-scale quantity: -log10 of the concentration expressed in molar.

SMILES STRING: CC(C)NC(=O)O[C@@H]1CC[C@]2(C)[C@H]3CC[C@@H]4[C@H]5[C@H](C(C)C)CC[C@]5(C(=O)O)CC[C@@]4(C)[C@]3(C)CC[C@H]2C1(C)C
pEC50: 6.91
--
SMILES STRING: CC(C)[C@@H]1CC[C@]2(N)CC[C@]3(C)[C@H](CC[C@@H]4[C@@]5(C)CC[C@@H](OC(=O)NC6CC6)C(C)(C)[C@@H]5CC[C@]43C)[C@@H]12
pEC50: 6.06
--
SMILES STRING: COc1ccc(NC(=O)O[C@@H]2CC[C@]3(C)[C@H]4CC[C@@H]5[C@H]6[C@H](C(C)C)CC[C@]6(C(=O)O)CC[C@@]5(C)[C@]4(C)CC[C@H]3C2(C)C)cc1
pEC50: 6.64

# lookup: pEC50 of CC(C)[C@@H]1CC[C@]2(C(=O)O)CC[C@]3(C)[C@H](CC[C@@H]4[C@@]5(C)CC[C@@H](OC(=O)N6CCOCC6)C(C)(C)[C@@H]5CC[C@]43C)[C@@H]12
6.34

Repeat with CCOC(=O)O[C@@H]1CC[C@]2(C)[C@H]3CC[C@@H]4[C@H]5[C@H](C(C)C)CC[C@]5(C(=O)O)CC[C@@]4(C)[C@]3(C)CC[C@H]2C1(C)C
7.10

// query: CC(C)[C@@H]1CC[C@]2(C(=O)O)CC[C@]3(C)[C@H](CC[C@@H]4[C@@]5(C)CC[C@@H](OC(=O)NC6CC6)C(C)(C)[C@@H]5CC[C@]43C)[C@@H]12
8.00

---

# TARGET SYSTEM: G-protein coupled bile acid receptor 1 (Homo sapiens, UniProt Q8TDU6)
# Sequence (Q8TDU6 whole entry): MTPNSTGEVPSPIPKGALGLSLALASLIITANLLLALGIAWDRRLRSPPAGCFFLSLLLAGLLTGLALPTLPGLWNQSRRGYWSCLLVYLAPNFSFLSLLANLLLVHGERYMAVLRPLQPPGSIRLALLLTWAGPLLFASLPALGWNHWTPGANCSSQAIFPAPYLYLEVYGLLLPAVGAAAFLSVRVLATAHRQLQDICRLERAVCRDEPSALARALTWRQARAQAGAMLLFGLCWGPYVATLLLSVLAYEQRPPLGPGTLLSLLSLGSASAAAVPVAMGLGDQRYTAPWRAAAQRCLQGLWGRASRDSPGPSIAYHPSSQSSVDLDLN
# MEASUREMENT NOTES: Agonist activity at N-terminal HA-tagged human TGR5 expressed in HEK293 cells assessed as […] in intracellular cAMP levels incubated for 30 mins by Lance Ultra cAMP assay
Decide using EC50 alone. Strictly below 30 nM: True. Equal to or above 30 nM: False.

Check out these entries, answers already filled in.
SMILES STRING: CC(C)[C@@H]1CC[C@]2(C(=O)O)CC[C@]3(C)[C@H](CC[C@@H]4[C@@]5(C)CC[C@@H](OC(=O)NC6CCC6)C(C)(C)[C@@H]5CC[C@]43C)[C@@H]12
CLASS NAME: True
//
SMILES STRING: C[C@H](O)[C@@H]1CC[C@]2(C(=O)O)CC[C@]3(C)[C@H](CC[C@@H]4[C@@]5(C)CC[C@@H](OC(=O)NC6CC6)C(C)(C)[C@@H]5CC[C@]43C)[C@@H]12
CLASS NAME: True
//
SMILES STRING: CC(C)[C@@H]1CC[C@]2(NC(=O)OCC(=O)O)CC[C@]3(C)[C@H](CC[C@@H]4[C@@]5(C)CC[C@@H](OC(=O)NC6CC6)C(C)(C)[C@@H]5CC[C@]43C)[C@@H]12
CLASS NAME: False

Query compound follows.
API: query returns whether the compound falls strictly under 30 nM in EC50. Query: CO/N=C(/C)[C@@H]1CC[C@]2(C(=O)O)CC[C@]3(C)[C@H](CC[C@@H]4[C@@]5(C)CC[C@@H](OC(=O)NC6CC6)C(C)(C)[C@@H]5CC[C@]43C)[C@@H]12
False
